- experimentalTarget: ATP-dependent translocase ABCB1 (Homo sapiens, UniProt P08183)
- Sequence (P08183 whole entry): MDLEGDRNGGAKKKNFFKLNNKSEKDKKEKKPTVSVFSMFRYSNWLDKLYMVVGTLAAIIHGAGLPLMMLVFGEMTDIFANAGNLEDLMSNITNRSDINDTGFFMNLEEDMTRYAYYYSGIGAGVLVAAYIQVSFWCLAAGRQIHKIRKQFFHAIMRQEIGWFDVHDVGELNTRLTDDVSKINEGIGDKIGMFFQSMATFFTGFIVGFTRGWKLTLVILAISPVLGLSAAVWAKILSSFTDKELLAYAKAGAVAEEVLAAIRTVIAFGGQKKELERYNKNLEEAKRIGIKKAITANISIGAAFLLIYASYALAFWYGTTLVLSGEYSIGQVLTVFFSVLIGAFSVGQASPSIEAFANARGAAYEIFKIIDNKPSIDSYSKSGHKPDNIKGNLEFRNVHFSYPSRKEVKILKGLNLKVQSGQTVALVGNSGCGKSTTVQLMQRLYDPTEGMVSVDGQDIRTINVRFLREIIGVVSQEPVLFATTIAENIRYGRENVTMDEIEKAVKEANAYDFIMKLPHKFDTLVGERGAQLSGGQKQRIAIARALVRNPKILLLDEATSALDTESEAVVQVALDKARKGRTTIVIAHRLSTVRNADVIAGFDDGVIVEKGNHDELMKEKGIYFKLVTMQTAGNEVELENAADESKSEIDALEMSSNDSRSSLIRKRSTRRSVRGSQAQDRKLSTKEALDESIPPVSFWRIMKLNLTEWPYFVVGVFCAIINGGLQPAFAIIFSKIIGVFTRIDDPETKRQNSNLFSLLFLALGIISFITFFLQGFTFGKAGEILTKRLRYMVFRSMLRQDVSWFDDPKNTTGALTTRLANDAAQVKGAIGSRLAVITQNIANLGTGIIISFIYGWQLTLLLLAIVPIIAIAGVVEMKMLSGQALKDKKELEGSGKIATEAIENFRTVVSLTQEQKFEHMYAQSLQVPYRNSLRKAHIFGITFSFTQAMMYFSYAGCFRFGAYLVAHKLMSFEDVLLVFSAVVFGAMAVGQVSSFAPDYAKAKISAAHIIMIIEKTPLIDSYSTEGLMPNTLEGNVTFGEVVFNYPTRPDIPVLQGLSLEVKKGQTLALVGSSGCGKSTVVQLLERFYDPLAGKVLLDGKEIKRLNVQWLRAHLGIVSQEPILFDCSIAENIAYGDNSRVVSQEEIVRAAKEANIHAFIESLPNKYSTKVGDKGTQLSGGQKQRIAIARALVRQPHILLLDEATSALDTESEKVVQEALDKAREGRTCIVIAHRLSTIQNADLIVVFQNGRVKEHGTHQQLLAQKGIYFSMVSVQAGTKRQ
- testDetails: Pgp transport inhibitory activity at 1 uM was measured by JC-1 accumulation assay method using JC-1 as substrate
- Format: functional
reportedMetric: Relative JC-1 accumulation

Some solved cases for reference:
compound: COc1ccc(C2CC(=O)c3c(O)cc(OCC(=O)N4CCN(Cc5cc(OC)c(OC)c(OC)c5)CC4)cc3O2)cc1O (configuration not stated)
Relative JC-1 accumulation: 0
//
compound: CCOC(=O)COc1cc(O)c2c(=O)cc(-c3ccc(OC)c(OCC(=O)N4CCN(Cc5ccc(OC)c(OC)c5OC)CC4)c3)oc2c1
Relative JC-1 accumulation: 7
//
compound: COc1ccc(-c2cc(=O)c3c(O)cc(OCC(=O)N4CCN(Cc5ccc(OC)c(OC)c5OC)CC4)cc3o2)cc1OCC(=O)N1CCN(Cc2ccc(OC)c(OC)c2OC)CC1
Relative JC-1 accumulation: 22

a: CCOC(=O)COc1cc(O)c2c(=O)cc(-c3ccc(OC)c(OCC(=O)N4CCN(Cc5ccc(OC)c(OC)c5)CC4)c3)oc2c1
b: CCOC(=O)COc1cc(-c2cc(=O)c3c(O)cc(OCC(=O)N4CCN(Cc5ccccc5)CC4)cc3o2)ccc1OC
c: CCOC(=O)COc1cc(-c2cc(=O)c3c(O)cc(OCC(=O)N4CCN(Cc5ccc(Cl)cc5)CC4)cc3o2)ccc1OC
Prompt: Hey, can you sort those compounds up there by Relative JC-1 accumulation, smallest first? I'd appreciate it if you listed the labels in the requested order.
Completion: a, c, b

---

- experimentalTarget: ATP-dependent translocase ABCB1 (Homo sapiens, UniProt P08183)
- testDetails: Pgp transport inhibitory activity at 1 uM was measured by JC-1 accumulation assay method using JC-1 as substrate
- Format: functional
reportedMetric: Relative JC-1 accumulation

Some solved cases for reference:
compound: CCOC(=O)COc1cc(-c2cc(=O)c3c(O)cc(OCC(=O)N4CCN(Cc5ccc(OC)c(OC)c5)CC4)cc3o2)ccc1OC
dataValue: 3
--
compound: COc1ccc(C2CC(=O)c3c(O)cc(OCC(=O)N4CC[N+](C)(Cc5ccc(OC)c(OC)c5OC)CC4)cc3O2)cc1O.[I-] (stereo unspecified)
dataValue: 0

a: COc1ccc(-c2cc(=O)c3c(O)cc(O[C@@H]4O[C@H](CO[C@@H]5O[C@@H](C)[C@H](O)[C@@H](O)[C@H]5O)[C@@H](O)[C@H](O)[C@H]4O)cc3o2)cc1OCC(=O)N1CCN(Cc2ccc(OC)c(OC)c2OC)CC1
b: COc1ccc(C2CC(=O)c3c(OC(=O)C(C)(C)C)cc(OCC(=O)N4CCN(Cc5ccc(OC)c(OC)c5OC)CC4)cc3O2)cc1OC(=O)C(C)(C)C (stereo unspecified)
c: COc1ccc(-c2cc(=O)c3c(OCC(=O)N4CCN(Cc5ccc(OC)c(OC)c5OC)CC4)cc(OCc4ccccc4)cc3o2)cc1OCc1ccccc1
d: COc1ccc(/C=C/C(=O)c2c(O)cc(OCC(=O)N3CCN(Cc4ccc(OC)c(OC)c4OC)CC3)cc2O)cc1O
Prompt: Hey, can you sort those compounds up there by Relative JC-1 accumulation, smallest first? I'd appreciate it if you listed the labels in the requested order.
Completion: a, d, c, b
(a: 0, d: 3, c: 28, b: 72)
